Cited source for all entries: patent US20240270821A1

TARGET OF ASSAY: hGLP-1R (Homo sapiens, UniProt P43220)
Sequence (P43220 24-463): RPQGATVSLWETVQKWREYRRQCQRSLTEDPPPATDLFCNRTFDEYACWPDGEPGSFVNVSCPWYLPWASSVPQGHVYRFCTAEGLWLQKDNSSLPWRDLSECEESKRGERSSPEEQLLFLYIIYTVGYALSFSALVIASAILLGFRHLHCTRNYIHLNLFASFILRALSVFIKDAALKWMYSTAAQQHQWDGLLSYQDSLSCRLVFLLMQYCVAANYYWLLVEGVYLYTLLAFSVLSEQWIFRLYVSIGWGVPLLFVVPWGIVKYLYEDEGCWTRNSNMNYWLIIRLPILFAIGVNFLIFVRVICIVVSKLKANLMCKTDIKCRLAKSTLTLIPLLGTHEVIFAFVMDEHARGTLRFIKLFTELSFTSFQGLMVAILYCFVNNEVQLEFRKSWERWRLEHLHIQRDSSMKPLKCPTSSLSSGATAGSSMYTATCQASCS
TEST DETAILS: cell-based or functional assay
log10(Relative cAMP EC50) by entry:
PROPERTY: log10(Relative cAMP EC50) (log10 of the value in nM)

[[record]]
binder = "YXQGTFTSDFSKXLDKKAQXAFIEYLLAGAPSSGAPPPSEG (Aib, αMeL; acylated lysine; C-terminal amide; synthetic construct; SITE 2: note = 2-Aminoisobutyric Acid; SITE 13: note = alpha-methyl-leucine; SITE 17: note = Lysine is chemically modified through conjugation of the epsilon-amino group of the Lysine side chain with (2-[2-(2-Amino-ethoxy)-ethoxy]-acetyl)-(gamma-Glu)-CO-(CH2) 18-CO2H; SITE 20: n) [Example 24]"
numeric_value = 0.49

[[record]]
binder = "YXQGTFTSDFSXXLDKKAQXAFIEYLLEGGPSSGAPPPGGSEE (non-natural residues, C-terminal amide, acylated Lys with fatty diacid; synthetic construct; SITE 2: note = 2-Aminoisobutyric Acid; SITE 12: note = L-ornithine; SITE 13: note = alpha-methyl-leucine; SITE 17: note = Lysine is chemically modified through conjugation of the epsilon-amino group of the Lysine side chain with (gamma-Glu)2-CO-(CH2)16-CO2H; SITE 20: note = 2-Am) [Example 1047]"
numeric_value = 1.21

[[record]]
binder = "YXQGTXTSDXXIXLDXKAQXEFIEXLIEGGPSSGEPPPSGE (not fully specified; non-natural residues; acylated Lys; C-terminal amide; synthetic construct; SITE 2: note = 2-Aminoisobutyric Acid; SITE 6: note = alpha-methyl-2-fluoro-L-phenylalanine; SITE 10: note = 3-(4-Pyridyl)-L-alanine; SITE 11: note = alpha-methyl-L-serine; SITE 13: note = alpha-methyl-leucine; SITE 16: note = L-ornithine; SITE 17: note = Lysine is chemically mo) [Example 1151]"
numeric_value = -0.58

[[record]]
binder = "YXQGTXTSDXXIXLDXKAQXEFIEXLVEGGPSSGAPPPSGSE (non-natural residues; Lys acylated C18 diacid via γGlu2; C-term amide; synthetic construct; SITE 2: note = 2-Aminoisobutyric Acid; SITE 6: note = alpha-methyl-2-fluoro-L-phenylalanine; SITE 10: note = 3-(4-Pyridyl)-L-alanine; SITE 11: note = alpha-methyl-L-serine; SITE 13: note = alpha-methyl-leucine; SITE 16: note = L-ornithine; SITE 17: note = Lysine is chemically mo) [Example 1162]"
numeric_value = -0.43

[[record]]
binder = "YXQGTFTSDXSQXLDXKAQXQFIEXLIEXGPSSGEPPPSGSEE (not fully specified; non-natural residues; Lys acylated C18 diacid via γGlu; C-term amide; synthetic construct; SITE 2: note = 2-Aminoisobutyric Acid; SITE 10: note = 3-(4-Pyridyl)-L-alanine; SITE 13: note = alpha-methyl-leucine; SITE 16: note = L-ornithine; SITE 17: note = Lysine is chemically modified through conjugation of the epsilon-amino group of the Lysine side chain with D-Glutami) [Example 1104]"
numeric_value = 0.23

[[record]]
binder = "YXQGTXTSDXXILLDXKAQXXFIEYLIEGGPSSGEPPPSGTE (synthetic construct; SITE 2: note = 2-Aminoisobutyric Acid; SITE 6: note = alpha-methyl-2-fluoro-L-phenylalanine; SITE 10: note = 3-(4-Pyridyl)-L-alanine; SITE 11: note = alpha-methyl-L-serine; SITE 16: note = L-ornithine; SITE 17: note = Lysine is chemically modified through conjugation of the epsi) [Example 531]"
numeric_value = -0.45

